# experimental.target: Luciferin 4-monooxygenase (Photinus pyralis) (UniProt P08659)
# Sequence (P08659 whole entry, looked up): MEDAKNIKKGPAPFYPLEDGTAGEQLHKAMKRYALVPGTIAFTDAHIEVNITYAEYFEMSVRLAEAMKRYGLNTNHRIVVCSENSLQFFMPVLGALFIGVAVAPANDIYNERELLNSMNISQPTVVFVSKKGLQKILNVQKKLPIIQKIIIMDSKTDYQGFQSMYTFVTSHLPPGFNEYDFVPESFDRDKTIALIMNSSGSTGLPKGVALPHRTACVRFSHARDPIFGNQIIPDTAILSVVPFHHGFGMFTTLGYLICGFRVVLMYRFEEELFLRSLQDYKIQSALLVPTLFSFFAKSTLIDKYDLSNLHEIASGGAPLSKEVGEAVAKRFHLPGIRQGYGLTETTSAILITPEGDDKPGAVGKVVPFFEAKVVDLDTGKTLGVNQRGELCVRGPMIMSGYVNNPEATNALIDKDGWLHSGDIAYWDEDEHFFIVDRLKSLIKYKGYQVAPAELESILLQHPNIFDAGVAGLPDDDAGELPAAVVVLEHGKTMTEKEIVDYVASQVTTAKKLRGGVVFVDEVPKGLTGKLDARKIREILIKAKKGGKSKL
# protocol: FLuc inhibitory activity for the follow-up compounds in a biochemical assay with 1mM ATP
# conditions.used: purified P. pyralis luciferase, luminescence; series mostly up to 57.5 µM
Results filed as inconclusive are left out. Activity calls are given as the source filed them. Calls follow the shape of the dose curve; as a rule, active = well fitted inhibition curve with a large enough effect; inconclusive = small, poorly fitted or top-dose-only effect; inactive = flat fitted curve, though single readings scatter.
Possible outcomes: y for active, n for inactive

• Nc1ccccc1-c1nc2ccccc2s1 = y
• CCOC(=O)N1CCN(CC(=O)Nc2nc3ccc(OC)cc3s2)CC1 = n
• O=C(Nc1ccccc1C(=O)O)c1cc(S(=O)(=O)Nc2ccccc2)ccc1Cl = n
• COc1ccc2nc(NC(=O)c3cccs3)sc2c1 = y
• O=C(O)c1cccc(NC(=O)c2ccc(COc3ccc(Cl)cc3)cc2)c1 = y
• Cc1c(C)c2ccc(OCC(=O)Nc3ccccn3)c(C)c2oc1=O = y
• O=C(Nc1cccc(-c2nc3ccccc3s2)c1)c1cc(-n2cnnc2)ccc1Cl = y
• O=C(COC(=O)c1ccccc1[N+](=O)[O-])c1ccc2c(c1)OCO2 = y
• O=C(Nc1ccccc1C(=O)O)c1cc(S(=O)(=O)NCc2ccccc2)ccc1Cl = n
• COc1ccc(Br)cc1C(=O)Nc1ccc(C(=O)O)cc1 = n
• CC(C)CC(=O)Nc1cccc(C(=O)Nc2ccccc2C(=O)O)c1 = y
• COc1ccc(-c2nc3ccccc3s2)cc1NC(=O)c1ccc(F)cc1 = n
• CCCC(=O)Nc1nc2ccc(OCC)cc2s1 = y
• CC(C)c1ccc(C(=O)Nc2ccc(-c3nc4ccccc4s3)c(Cl)c2)cc1 = n
• Cc1ccc(C(=O)Nc2ccc(C(=O)O)cc2)cc1S(=O)(=O)NCc1ccccc1 = n
• Oc1ccc(-c2nc3ccccc3s2)c(O)c1 = y
• Cc1ccc(C(=O)Nc2cccc(C(=O)O)c2)cc1S(=O)(=O)N1CCCCC1 = y

---

# experimental.target: Luciferin 4-monooxygenase (Photinus pyralis)
# protocol: FLuc inhibitory activity for the follow-up compounds in a biochemical assay with 1mM ATP
# conditions.used: purified P. pyralis luciferase, luminescence; series mostly up to 57.5 µM
Results filed as inconclusive are left out. Activity calls are given as the source filed them. The call rests on the fitted dose curve; in most records, active means well fitted inhibition curve with a large enough effect; inconclusive means small, poorly fitted or top-dose-only effect; inactive means flat fitted curve, though single readings scatter.
Outcomes: active, inactive

* COc1cc(OC)cc(-c2nc3ccccc3s2)c1 | active
* O=S(=O)(c1ccc(-c2nc3ccccc3s2)cc1)N1CCCC1 | active
* O=C(Nc1ccccc1C(=O)O)c1cccc(NC(=O)c2ccc(Br)o2)c1 | active
* COc1ccc2nc(NC(=O)c3ccc(S(=O)(=O)N4CCCC(C)C4)cc3)sc2c1 (stereo unspecified) | inactive
* O=C(O)c1ccc(NC(=O)c2cc(S(=O)(=O)N3CCCCC3)c(Cl)cc2Cl)cc1 | inactive
* CCOc1ccc(C(=O)Nc2ccccc2C(=O)O)cc1 | active
* Cc1ccc(C(=O)O/N=C(\N)c2ccccn2)c(Cl)c1 | active
* NC(=O)Cc1ccc2sc(-c3ccccc3)nc2c1 | active
* Nc1ccc(-c2nc3ccc(N)cc3s2)cc1 | active
* CCn1c(C)nc2cc(-c3nc4n(n3)Cc3ccccc3-4)ccc21 | active
* O=C(Nc1ccccc1C(=O)O)c1cccc(S(=O)(=O)Nc2ccc(Br)cc2)c1 | inactive
* Cc1c(NS(C)(=O)=O)cccc1-c1nc2ccccc2s1 | active
* Nc1ccc(C(=O)Nc2ccccc2C(=O)O)cc1 | active
* c1ccc2sc(-c3ccc4c(c3)OCO4)nc2c1 | active
* CC(C)c1ccc(-c2nc3ccccc3s2)cc1 | active
* O=C(Nc1ccccc1C(=O)O)c1ccc(NC(=O)C2CCCCC2)cc1 | active
* O=C(O)c1ccc(NC(=O)c2ccccc2NC(=O)c2ccccc2Br)cc1 | inactive
* COc1ccc(C(=O)Nc2ccccc2C(=O)Nc2ccccc2C(=O)O)cc1 | active
* O=C(Nc1c(Cl)cc(Cl)cc1-c1nc2ccccc2s1)c1ccc(Br)o1 | inactive
* COc1ccc(C(=O)Nc2ccccc2C(=O)Nc2ccc(C(=O)O)cc2)cc1 | active
* CCOc1ccc2nc(NC(=O)Cc3cccs3)sc2c1 | active
* COc1ccc2nc(NC(=O)c3ccco3)sc2c1 | active
* O=C(Nc1ccccc1C(=O)O)c1cccc(NC(=O)c2ccccc2Cl)c1 | active
* Cc1c(NC(=O)C(C)(C)C)cccc1-c1nc2ccccc2s1 | active
* CCOc1c(Cl)cc(C(=O)Nc2ccccc2C(=O)O)cc1Cl | active
* Cc1ccc(C(=O)Nc2ccc(C(=O)O)cc2)cc1S(=O)(=O)Nc1ccccc1 | inactive
* CC(C)(C)C(=O)Nc1ccc(-c2nc3ccccc3s2)cc1 | active
* COc1ccc(C(=O)Nc2ccccc2-c2nc3ccccc3s2)c(OC)c1 | inactive
* COc1ccc2nc(NC(=O)c3cnccn3)sc2c1 | active
* O=C(Nc1ccccc1C(=O)O)c1cccc(NC(=O)c2ccco2)c1 | active
* Cc1ccc2nc(-c3ccc(NC(=O)CN4CCN(C(=O)c5ccco5)CC4)cc3)sc2c1 | active
* COc1ccc(-c2cccc(C(=O)Nc3cccc(C(=O)O)c3)c2)cc1 | active
* CCOc1ccc2nc(NC(=O)c3ccccc3)sc2c1 | active
* CCOc1ccc(C(=O)Nc2cccc(C(=O)O)c2)cc1Cl | active
* O=C(Nc1ccccc1C(=O)O)c1cc(S(=O)(=O)Nc2cccc(F)c2)ccc1Cl | inactive
* Cc1ccc(NS(=O)(=O)c2ccc(Cl)c(C(=O)Nc3cccc(C(=O)O)c3)c2)cc1 | inactive
* O=C(Nc1ccccc1C(=O)O)c1ccc(Cl)c(S(=O)(=O)N2CCOCC2)c1 | active
* Nc1ccc(-c2nc3cc(N)ccc3s2)cc1 | active
* COc1cc(C(=O)Nc2cc(C)c(O)c(-c3nc4ccccc4s3)c2)cc(OC)c1OC | inactive
* Cc1ccc(C(=O)Nc2cccc(C(=O)O)c2)cc1S(=O)(=O)N1CCCC1 | active
* COc1ccc2nc(NC(=O)c3ccc4ncsc4c3)sc2c1 | active
* Nc1ccc2nc(-c3ccccc3)sc2c1 | active
* O=C(Nc1ccccc1C(=O)O)c1ccc(NC(=O)C2CCCO2)cc1 (stereo unspecified) | active
* COc1ccc2nc(NC(=O)Cc3cccs3)sc2c1 | active
* COc1ccc(C(=O)Nc2nc3ccc(OC)cc3s2)cc1 | active
* Cn1c(N/N=C/c2cc3ccccc3nc2Cl)nc2ccccc21 | active
